System: Neuronal cortical cells
Experiment: Assay for test compound cytoxicity, MTS (Assay 3(d))
Type: cell-based, mouse
Details: BL6J×129sv, mouse, 4 days, 0.1 uM
# Test Compound Cytoxicity 0.1 um per record follows

{"columns": ["Molecule", "Test Compound Cytoxicity 0.1 um / %"],
 "data": [
  ["O=S(=O)(O)c1ccc(O)c2ncccc12 [compound 41]", 95],
  ["Oc1ccc(/C=C/c2ccc3cccc(O)c3n2)cc1 [compound 89]", 87],
  ["CCCCN(c1ccc2cccc(O)c2n1)c1ccc2cccc(O)c2n1 [compound 53]", 96],
  ["Oc1c(Br)cc(-c2ccccc2)c2cccnc12 [compound 806]", 99],
  ["Nc1ccccc1NC(=O)c1cc(O)c2cccc(O)c2n1 [compound 986]", 96]
]}

* * *

Tested on: Neuronal cortical cells
Experiment: Assay for test compound cytoxicity, MTS (Assay 3(d))
Format: cell-based, mouse
Details: BL6J×129sv, mouse, 4 days, 10 uM
So basically: Test Compound Cytoxicity 10 uM at 70 or higher? That is True. Lower than 70? That is False.

{"columns": ["Molecule", "Target System", "Class Label"],
 "data": [
  ["Oc1c(Cl)cc(Cl)c2cccnc12", "Neuronal cortical cells", "False"],
  ["Cc1cc(C)c2cccnc2c1O", "Neuronal cortical cells", "False"],
  ["O=C(NCCc1ccccn1)c1ccc2cccc(O)c2n1", "Neuronal cortical cells", "True"],
  ["Oc1cccc2ccc(-c3ccccn3)nc12", "Neuronal cortical cells", "False"],
  ["Oc1c(Br)cc(Br)c2cccnc12", "Neuronal cortical cells", "True"],
  ["Oc1cccc2ccc(CN(Cc3ccccn3)Cc3nccs3)nc12", "Neuronal cortical cells", "False"],
  ["O/N=C/c1ccc2cccc(O)c2n1", "Neuronal cortical cells", "True"],
  ["CCCCN(c1ccc2cccc(O)c2n1)c1ccc2cccc(O)c2n1", "Neuronal cortical cells", "True"],
  ["Oc1cccc2ccc(CN(Cc3ccccn3)Cc3c[nH]cn3)nc12", "Neuronal cortical cells", "False"],
  ["O=S(=O)(O)c1ccc(O)c2ncccc12", "Neuronal cortical cells", "True"],
  ["CC(=O)NC(=O)c1ccc2cccc(O)c2n1", "Neuronal cortical cells", "True"],
  ["Cc1cnc(NC(=O)c2ccc3cccc(O)c3n2)s1", "Neuronal cortical cells", "False"],
  ["Oc1c(Cl)cc(Cl)c2cc(Cl)cnc12 [compound 1058, 3,5,7-trichloro-8-hydroxyquinoline]", "Neuronal cortical cells", "False"],
  ["Oc1c(-c2ccccc2C(F)(F)F)cc(Cl)c2cccnc12", "Neuronal cortical cells", "False"],
  ["O=C(CNC(=O)c1cc(O)c2cccc(O)c2n1)NCCc1c[nH]cn1", "Neuronal cortical cells", "True"],
  ["CN(CCc1ccccn1)Cc1ccc2cccc(O)c2n1", "Neuronal cortical cells", "False"],
  ["Oc1ccc(/C=C/c2ccc3cccc(O)c3n2)cc1", "Neuronal cortical cells", "True"],
  ["NC(=O)c1ccc2c(Cl)cc(Cl)c(O)c2n1", "Neuronal cortical cells", "True"],
  ["Oc1cccc2ccc(CN(CCc3c[nH]cn3)Cc3ccccn3)nc12", "Neuronal cortical cells", "False"],
  ["Cn1cnc(CCNC(=O)c2ccc3c(Cl)cc(Cl)c(O)c3n2)c1", "Neuronal cortical cells", "True"],
  ["Oc1cccc2ccc(CN(CCc3c[nH]cn3)Cc3c[nH]cn3)nc12", "Neuronal cortical cells", "False"],
  ["O/N=C/c1ccc2c(Cl)cc(Cl)c(O)c2n1", "Neuronal cortical cells", "True"],
  ["Oc1c(Cl)cc(-c2cccnc2)c2cccnc12", "Neuronal cortical cells", "True"],
  ["O=C(NCCc1c[nH]cn1)c1ccc2c(Cl)cc(Cl)c(O)c2n1", "Neuronal cortical cells", "True"],
  ["Oc1ccccc1-c1cc(Cl)c2cccnc2c1O", "Neuronal cortical cells", "False"],
  ["CSc1ccccc1-c1ccc2cccc(O)c2n1", "Neuronal cortical cells", "True"],
  ["Cc1cccc(-c2ccc3cccc(O)c3n2)n1", "Neuronal cortical cells", "False"],
  ["O=C(Nc1nccs1)c1ccc2cccc(O)c2n1", "Neuronal cortical cells", "False"],
  ["Cc1ccccc1-c1cc(Cl)c2cccnc2c1O", "Neuronal cortical cells", "False"],
  ["CN(c1ccc2cccc(O)c2n1)c1ccc2cccc(O)c2n1", "Neuronal cortical cells", "False"],
  ["O=C(c1ccc2cccc(O)c2n1)N(Cc1ccccn1)Cc1ccccn1", "Neuronal cortical cells", "True"],
  ["COc1cccc(-c2cc(Cl)c3cccnc3c2O)c1", "Neuronal cortical cells", "False"],
  ["Oc1c(Br)cc(-c2ccccc2)c2cccnc12", "Neuronal cortical cells", "False"],
  ["Oc1c(Cl)cc(Cl)c2ccc(-c3ccccn3)nc12", "Neuronal cortical cells", "False"],
  ["Oc1c(Br)cc(-c2cc(F)cc(F)c2)c2cccnc12", "Neuronal cortical cells", "False"]
]}

FYI, the data here is from patent US9302993B2.
